recorded-metric: melting point

In: Which melting point value belongs to C[C@@H](OC(=O)Nc1ccc(-c2c(C#N)c3ccc(Oc4nccnc4C#N)cc3n2C2CCC2)cc1)C1CC1 [Compound 3191] ?
Out: 227 to 229 °C

In: Which melting point value belongs to CCOc1ccc2c(C#CC3CC3)c(-c3ccc(NC(=O)OC(C)C)cc3)n(CC3CC3)c2c1 [compound 2635] ?
Out: 175 to 180 °C

In: Which melting point value belongs to N#Cc1c(-c2ccc(NCC3CCCCC3)cc2)n(C2CCC2)c2cc(OCCF)ccc12 [Compound 3241] ?
Out: 169 to 173 °C

In: Which melting point value belongs to CC(C)OC(=O)Nc1ccc(-c2c(C#N)c3ccc(OC4CCS(=O)(=O)CC4)cc3n2C(C)C)cc1 [Compound 3236] ?
Out: 173 to 190 °C

In: Which melting point value belongs to CC(C)NC(=O)Nc1ccc(-c2c(C#N)c3ccc(OCCS(C)(=O)=O)cc3n2C2CCC2)cc1 [Compound 2873] ?
Out: 170 to 180 °C

In: Which melting point value belongs to C[C@@H](OC(=O)Nc1ccc(-c2c(C#N)c3ccc(-n4ccccc4=O)cc3n2C2CCC2)cc1)C1CC1 [Compound 3315] ?
Out: 237 to 238 °C

In: Which melting point value belongs to CCCS(=O)(=O)Nc1ccc(-c2c(C#N)c3ccc(-c4cc(C)ccn4)cc3n2C2CCC2)cc1 [Compound 2978] ?
Out: 210 to 212 °C

---

Record form. Attribute: melting point. Fill in for each entry.

In: Which melting point value belongs to `C[C@H](NS(=O)(=O)Nc1ccc(-c2c(C#N)c3ccc(Oc4ncccc4Br)cc3n2C2CCC2)cc1)C1CC1` ?
Out: 118 to 124 °C

In: Which melting point value belongs to CC(OC(=O)Nc1ccc(-c2c(C#N)c3ccc(OC4CCOCC4)cc3n2C2CCC2)cc1)C1CC1 (centres unmarked) ?
Out: 118 to 120 °C

In: Which melting point value belongs to `CCCS(=O)(=O)Nc1ccc(-c2c(C#N)c3ccc(Oc4nccnc4C)cc3n2C2CCC2)cc1` ?
Out: 227 to 230 °C

In: Which melting point value belongs to `CCOc1ccc2c(C#N)c(-c3ccc(S(=O)(=O)N4CC[C@H](O)C4)cc3)n(C3CCC3)c2c1` ?
Out: 195 to 196 °C

In: Which melting point value belongs to `CC(C)[C@H](C)OC(=O)Nc1ccc(-c2c(C#N)c3ccc(OC4COCOC4)cc3n2C2CCC2)cc1` ?
Out: 200 to 201 °C

In: Which melting point value belongs to `CSc1nccc(Oc2ccc3c(C#N)c(-c4ccc(NC(=O)NC(C)C)cc4)n(C4CCC4)c3c2)n1` ?
Out: 238 to 243 °C

In: Which melting point value belongs to `CCOc1ccc2c(C#N)c(-c3ccc(N(CC)C(=O)NC4CCCC4)cc3)n(C3CCC3)c2c1` ?
Out: 153 to 160 °C

In: Which melting point value belongs to `N#Cc1nccnc1Oc1ccc2c(C#N)c(-c3ccc(NS(=O)(=O)C4CC4)cc3)n(CC3CC3)c2c1` ?
Out: 193 to 196 °C

In: Which melting point value belongs to `N#Cc1c(-c2ccc(NS(=O)(=O)C3CCC3)cc2)n(C2CCC2)c2cc(C(=O)N3CCOCC3)ccc12` ?
Out: 198 to 200 °C

In: Which melting point value belongs to `CCS(=O)(=O)Nc1ccc(-c2c(C#N)c3ccc(N4CCCC4)cc3n2C2CCC2)cc1` ?
Out: 244 to 250 °C

In: Which melting point value belongs to `C[C@@H](OC(=O)Nc1ccc(-c2c(C#N)c3ccc(N4CCOCC4)cc3n2C2CCC2)cc1)C(F)(F)F` ?
Out: 220 to 222 °C

In: Which melting point value belongs to CS(=O)(=O)Nc1ccc(-c2c(C#N)c3ccc(OC(F)F)cc3n2CC2CCCO2)cc1 (centres unmarked) ?
Out: 87 to 88 °C

In: Which melting point value belongs to `Cc1csc(Nc2ccc(-c3c(C#N)c4ccc(Oc5ncccn5)cc4n3C3CC3)cc2)n1` ?
Out: 223 to 225 °C

In: Which melting point value belongs to `N#Cc1c(-c2ccc(NC3CC3)nc2)n(C2CCC2)c2cc(Oc3ncccn3)ccc12` ?
Out: 244 to 246 °C

In: Which melting point value belongs to `CCn1c(-c2ccc(NC(=O)O[C@H](C)C3CC3)cc2)c(C#N)c2ccc(OC3CCS(=O)(=O)CC3)cc21` ?
Out: 189 to 196 °C

In: Which melting point value belongs to `N#Cc1c(-c2ccc(OC(=O)N3CCOCC3)cc2)n(C2CCC2)c2cc(OC3CCOCC3)ccc12` ?
Out: 178 to 179 °C

In: Which melting point value belongs to `COCCN(C)C(=O)c1ccc2c(C#N)c(-c3ccc(NC(=O)OC(C)C)cc3)n(C3CCC3)c2c1` ?
Out: 102 to 105 °C

In: Which melting point value belongs to `CCn1c(-c2ccc(NC(=O)C3CC3)cc2)c(C#N)c2ccc(OCCN3CCCN(C)CC3)cc21` ?
Out: 95.9 to 99 °C

In: Which melting point value belongs to `N#Cc1c(-c2ccc(NC(=O)Nc3n[nH]c(C4CC4)n3)cc2)n(C2CCC2)c2cc(Oc3ncccn3)ccc12` ?
Out: 275 °C (dec.)

In: Which melting point value belongs to `C[C@@H](OC(=O)Nc1ccc(-c2c(C#N)c3ccc(N4CCS4(=O)=O)cc3n2C2CCC2)cc1)C1CC1` ?
Out: 235 °C (dec.)

In: Which melting point value belongs to `C[C@@H](OC(=O)Nc1ccc(-c2c(C#N)c3ccc(-n4ccccc4=O)cc3n2C2CCC2)cc1)C(F)(F)F` ?
Out: 244 to 245 °C

In: Which melting point value belongs to `C[C@@H](OC(=O)Nc1ccc(-c2c(C#N)c3ccc(-c4ccnn4C)cc3n2C2CCC2)cc1)C1CC1` ?
Out: 195 to 197 °C

In: Which melting point value belongs to `CCOc1ccc2c(C#N)c(-c3ccc(N4CCCOC4=O)cc3)n(C3CCC3)c2c1` ?
Out: 226 to 228 °C

In: Which melting point value belongs to `C[C@@H](OC(=O)Nc1ccc(-c2c(C#N)c3ccc(-c4ncccc4[N+](=O)[O-])cc3n2C2CCC2)cc1)C1CC1` ?
Out: 199 to 201 °C

In: Which melting point value belongs to `Cc1noc(C)c1-c1ccc2c(C#N)c(-c3ccc(NC(=O)O[C@H](C)C4CC4)cc3)n(C3CCC3)c2c1` ?
Out: 225 °C (dec.)

In: Which melting point value belongs to `COCCCNC(=O)c1ccc2c(C#N)c(-c3ccc(NC(=O)O[C@H](C)C4CC4)cc3)n(C3CCC3)c2c1` ?
Out: 90 to 94 °C

In: Which melting point value belongs to `N#Cc1c(-c2ccc(NS(=O)(=O)C3CC3)cc2)n(C2CCC2)c2cc(OC3COCOC3)ccc12` ?
Out: 216 to 217 °C

In: Which melting point value belongs to `N#Cc1c(-c2ccc(OC(=O)N3CCOCC3)cc2)n(CC2CC2)c2cc(OC3CCOCC3)ccc12` ?
Out: 188 to 189 °C

In: Which melting point value belongs to COCCOc1ccc2c(C#N)c(-c3ccc(NC(=O)OC(c4ccccc4)C4CC4)cc3)n(C3CC3)c2c1 (centres unmarked) ?
Out: 74 to 76 °C

---

Record form. Attribute: melting point. Fill in for each entry.

In: Which melting point value belongs to CCCS(=O)(=O)Nc1ccc(-c2c(C#N)c3ccc(Oc4cnccc4C#N)cc3n2CC2CC2)c(C)c1 [Compound 3303] ?
Out: 138 to 142 °C

In: Which melting point value belongs to CCn1c(-c2ccc(NC(=O)OCc3ccccc3)cc2)c(C#N)c2ccc(OCCOC)cc21 [Compound 1372] ?
Out: 107 to 109 °C

In: Which melting point value belongs to CC(OC(=O)Nc1ccc(-c2c(C#N)c3ccc(Oc4ncccn4)cc3n2C2CCC2)cc1)c1ccc(F)cc1 (stereo not drawn) [Compound 2708] ?
Out: 200 to 202 °C

In: Which melting point value belongs to CC(C)OC(=O)Nc1ccc(-c2c(C#N)c3ccc(N4CCOCC4)cc3n2C(C)C)cc1 [Compound 2934] ?
Out: 192 to 195 °C

In: Which melting point value belongs to CCn1c(-c2ccc(N3CCCS3(=O)=O)cc2)c(C#N)c2ccc(Oc3nccnc3C#N)cc21 [Compound 3196] ?
Out: 232 to 236 °C

In: Which melting point value belongs to CCCS(=O)(=O)Nc1ccc(-c2c(C#N)c3ccc(Oc4ncccc4F)cc3n2CC2CC2)c(C)c1 [Compound 3030] ?
Out: 128 to 131 °C

In: Which melting point value belongs to CC(C)n1c(-c2ccc(NC(=O)O[C@H](C)c3ccc(F)cc3)cc2)c(C#N)c2ccc(N3CCOCC3)cc21 [Compound 2953] ?
Out: 231 to 234 °C

In: Which melting point value belongs to N#Cc1c(-c2ccc(OC(=O)NC3CCCC3)cc2)n(C2CCC2)c2cc(OC3CCOCC3)ccc12 [Compound 2811] ?
Out: 168 to 169 °C

In: Which melting point value belongs to C[C@@H](OC(=O)Nc1ccc(-c2c(C#N)c3ccc(OC4CCS(=O)(=O)CC4)cc3n2C2CC2)cc1)C1CC1 [Compound 3199] ?
Out: 205 to 210 °C

In: Which melting point value belongs to CCn1c(-c2ccc(NC(=O)O[C@H](C)C(F)(F)F)cc2)c(C#N)c2ccc(Oc3ncccn3)cc21 [Compound 2929] ?
Out: 221 to 223 °C

In: Which melting point value belongs to CCCNC(=O)Oc1ccc(-c2c(C#N)c3ccc(OC4CCOCC4)cc3n2C2CCC2)cc1 [Compound 2808] ?
Out: 153 to 154 °C

In: Which melting point value belongs to CC(C)OC(=O)Nc1ccc(-c2c(C#N)c3ccc(OC4CCS(=O)(=O)CC4)cc3n2C2CCCC2)cc1 [Compound 3246] ?
Out: 223 to 227 °C

In: Which melting point value belongs to N#Cc1c(-c2ccc(NC(=O)O[C@@H](c3ccccc3)C(F)(F)F)cc2)n(C2CCC2)c2cc(OCC3OCCO3)ccc12 [Compound 2805] ?
Out: 174 to 175 °C

In: Which melting point value belongs to CCn1c(-c2ccc(NC(=O)OCCCl)cc2)c(C#N)c2ccc(OCCOC)cc21 [Compound 1373] ?
Out: 148 to 151 °C

In: Which melting point value belongs to CCCS(=O)(=O)Nc1ccc(-c2c(C#N)c3ccc(-c4ncccc4C#N)cc3n2C2CCC2)cc1 [Compound 3244] ?
Out: 223 to 225 °C
